List of growth inhibition values.
- Measurement Description: NCI Yeast Anticancer Drug Screen. Data for the rad50 strain (AID 155);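 further: 0% = growth of vehicle-only cultures of the same strain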
- Test Context: S. cerevisiae rad50 strain growth inhibition; at 100.0 µM; stronger effect = higher value
This is part of a sample that, as a whole, favours compounds with a hit. Of some 79,000 tested, about 15% had one in any assay.
# unit: % | format: bare number

Consider the compound shown here: `CCN(CC)CCNc1ccc([N+](=O)[O-])c2nc3ccc(OC)cc3c(N)c12` What is its recorded growth inhibition?
93

Consider the compound shown here: `CC1=C(SCCO)C(=O)c2ccccc2C1=O` What is its recorded growth inhibition?
42

Consider the compound shown here: `CC(C)C1=CC2=C[C@H](O)[C@H]3C(C)(C)CCC[C@]3(C)C2=C(O)C1=O` What is its recorded growth inhibition?
93

Consider the compound shown here: `CCN(CC)CCN1C(=O)c2cccc3cc(OC)cc(c23)C1=O` What is its recorded growth inhibition?
93

Consider the compound shown here: `O=C1C(=O)c2ccccc2C=C1[N+](=O)[O-]` What is its recorded growth inhibition?
82

* * *

- Measurement Description: NCI Yeast Anticancer Drug Screen. Data for the CLN2oe strain (AID 163);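 further: 0% = growth of vehicle-only control cultures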
- Test Context: S. cerevisiae CLN2oe strain, at 33.0 µM, stronger effect = higher value
Compounds without any hit were thinned out: in the full panel of roughly 79,000, 15% have a hit.
List of growth inhibition values.
# unit: % | format: bare number

Recorded results for 4 compounds are shown here.
Cc1[nH]c2ccccc2c1C(c1ccc(N)cc1)c1c(C)[nH]c2ccccc12 : 0
O=C(Nc1ccc(Cl)cc1)OCC#CCCl : 1
CC(/C=C/c1ccc(Cl)cc1)=N\NC(=S)NCC(C)C : 5
O=C([O][Sn]([O]C(=O)c1ccccc1)([c]1ccccc1)[c]1ccccc1)c1ccccc1 : 23

Consider the compound shown here: Cc1ccc(C2C(Cl)C(=O)N2n2cnc3ccccc3c2=O)cc1 (stereo not given) What is its recorded growth inhibition?
-54

Consider the compound shown here: `CCOC(=O)c1cc(-c2ccc(Cl)cc2)c([N+](=O)[O-])n1C` What is its recorded growth inhibition?
60

Consider the compound shown here: `COc1ccc(Br)c(C(=O)Sc2nnnn2-c2cccc(Cl)c2)c1` What is its recorded growth inhibition?
5

Consider the compound shown here: OC1(c2ccccc2)CSC2=Nc3ccccc3C3CCN1N23 (stereo not given) What is its recorded growth inhibition?
2

Consider the compound shown here: `CCOC(=O)c1cc([N+](=O)[O-])cc([N+](=O)[O-])c1Sc1ncnc2nc[nH]c12` What is its recorded growth inhibition?
54

Consider the compound shown here: O=C1OC(CCl)CN1/N=C/c1ccc([N+](=O)[O-])o1 (stereo not given) What is its recorded growth inhibition?
-7

Consider the compound shown here: `Cc1cc(I)ccc1N` What is its recorded growth inhibition?
79

Consider the compound shown here: CCOP(=O)(OCC)C(Cc1ccccc1)N=C(c1ccccc1)c1ccccc1 (stereo not given) What is its recorded growth inhibition?
87

Consider the compound shown here: CC(C)C1=CCC2C(=C1)CCC1C(C)(C(=O)O)CCCC21C (stereo not given) (tested in a mixture with another compound) What is its recorded growth inhibition?
40

Consider the compound shown here: `O=[N+]([O-])c1cccc2nc3ccccc3c(NCCCN3CCOCC3)c12` What is its recorded growth inhibition?
96

Consider the compound shown here: `S=c1[nH]nc(Nc2ccc(Cl)cc2)s1` What is its recorded growth inhibition?
-11

* * *

List of growth inhibition values.
- Measurement Description: NCI Yeast Anticancer Drug Screen. Data for the rad50EPP+ strain (AID 151);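 further: 0% = growth of vehicle-treated control cultures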
- Test Context: S. cerevisiae rad50 mutant strain, at 1.2 µM, stronger effect = higher value
The panel holds about 79,000 compounds, 15% with a hit somewhere; the sample as a whole holds those more often.
# unit: % | format: bare number

Cc1ccc(S(=O)(=O)NNC(=S)Nc2cccc3ccccc23)cc1 : 10

Consider the molecule shown here: CN1CCc2ccccc2C1Cc1ccccc1NC(=O)c1sc2ccccc2c1Cl (stereo unspecified) What is its recorded growth inhibition?
-21

Consider the molecule shown here: Cc1c(C(Cc2ccccc2N(C)C(=O)/C=C\C(=O)O)c2c[nH]c3ccccc23)c2ccccc2n1C (stereo unspecified) What is its recorded growth inhibition?
-6

Consider the molecule shown here: `CCNc1nnc(CSc2nc(-c3ccccc3)c(-c3ccccc3)[nH]2)s1` What is its recorded growth inhibition?
9

Consider the molecule shown here: `CC(C)c1ccccc1NC(=O)/C(Cl)=C(\Cl)C(=O)O` What is its recorded growth inhibition?
2

Consider the molecule shown here: `CCN(CC)CCNc1ccc([N+](=O)[O-])c2nc3ccc(OC)cc3c(N)c12` What is its recorded growth inhibition?
11

Consider the molecule shown here: `COc1ccc(-c2cn(-c3ccc(I)cc3)c3ncnc(N)c23)cc1` What is its recorded growth inhibition?
-2

Consider the molecule shown here: `CC(C)/C(Cl)=N\OC(=O)Nc1ccccc1F` What is its recorded growth inhibition?
18

Consider the molecule shown here: COc1ccc(C2c3cc4c(cc3OC(C)(O)C2C)OCO4)c(OC)c1 (stereo unspecified) What is its recorded growth inhibition?
6

Consider the molecule shown here: `CCCCCCc1cc(C(=O)OC/C(C)=N/NC(N)=O)c2ccccc2n1` What is its recorded growth inhibition?
-1

Consider the molecule shown here: `CN=C(N)N/N=C/c1ccc2c(c1)Cc1ccccc1-2` What is its recorded growth inhibition?
-6

* * *

- Measurement Description: NCI Yeast Anticancer Drug Screen. Data for the rad50 strain (AID 155);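 further: 0% = growth of vehicle-only cultures of the same strain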
- Test Context: S. cerevisiae rad50 strain growth inhibition; at 3.7 µM
About 79,000 compounds went through this panel and 15% of them were active in at least one assay; those are over-represented in the sample as a whole. Active and inactive are the calls of the source. Rule as the data show it: active = growth inhibition above about 70%; inactive = the rest.
Just give me one of these, please: active, inactive

Consider the following illustrative entries.
CCCCCCc1cc(C(=O)OC/C(C)=N/NC(N)=O)c2ccccc2n1 : inactive
Cc1cc(N=Nc2ccc(S(=O)(=O)[O-])cc2)cc(C(=O)[O-])c1[O-].NC1CCCCC1N.[Na+].[Pt+4] : active
COc1cc(C2C3=C(COC3=O)Oc3cc4c(cc32)OCO4)ccc1O (centres undefined) : inactive
NC1=NS(=O)(=O)N=C(N)C1=Cc1ccc([N+](=O)[O-])o1 : inactive
COc1ccc2nc3cccc([N+](=O)[O-])c3c(NCCN(CCO)CCO)c2c1 : active

Recorded call for `CCOC(=O)C1=C(C(=O)c2ccccc2)C(c2ccccc2[N+](=O)[O-])C(C(=O)c2ccccc2)=C(C(=O)OCC)N1` ?
inactive

Recorded call for `COc1cc2c3c(cccc3c1)C(=O)N(CCN(C)C)C2=O` ?
inactive

Recorded call for `S=C(N/N=C/c1ccccn1)Nc1ccc(Cl)cc1` ?
inactive

Recorded call for `O=C1C(=O)c2ccccc2C=C1[N+](=O)[O-]` ?
inactive

Recorded call for `Cc1ccc2ccc3cccc4ccc1c2c34` ?
inactive

Recorded call for CCOC(=O)[C@H]1Nc2ccccc2C2c3ccccc3CC21 (some centres undefined) ?
inactive

Recorded call for `C[Si](C)(C)CNC(=O)OCc1ccccc1` ?
inactive

* * *

- Measurement Description: NCI Yeast Anticancer Drug Screen. Data for the mec2-1 strain (AID 157)
- Test Context: S. cerevisiae mec2-1 strain, at 11.0 µM, stronger effect = higher value
- Procedure: Growth inhibition of yeast strains with defined genetic alterations is measured as a screen for potential anti-cancer activity. Selected strains with alterations in DNA damage repair or cell cycle control were exposed to compounds and growth inhibition was measured relative to vehicle treated controls. The strain used in this assay is mec2-1
This is part of a sample that, as a whole, favours compounds with a hit. Of some 79,000 tested, about 15% had one in any assay. Calls of active or inactive are those of the source. Rule as the data show it: active = growth inhibition above about 70%; inactive = the rest.
List of growth inhibition values.

Recorded results for 5 molecules are shown here.
c1ccc2c(c1)C(=NCCCN1CCCCCC1)c1cccn1-2 : 4% (inactive)
O=[N+]([O-])/C=C/c1ccc2ccccc2c1 : 100% (active)
Cc1ccc2[nH]c3c(C)c4cc[n+](C)cc4c(C)c3c2c1 : 8% (inactive)
CC(=O)Nc1ccc(SC(C)=O)cc1 : -9% (inactive)
c1ccc2c(c1)NC(NC1Nc3ccccc3N1)N2 : 10% (inactive)

Next up:
Consider the molecule shown here: `Cc1nn(-c2cc(Cl)ccc2[N+](=O)[O-])c(C)c1Cl` What is its recorded growth inhibition?
3% (inactive)

* * *

- Measurement Description: NCI Yeast Anticancer Drug Screen. Data for the CLN2oe strain (AID 163);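 further: 0% = growth of vehicle-only control cultures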
- Test Context: S. cerevisiae CLN2oe strain, at 33.0 µM, stronger effect = higher value
- Description: Growth inhibition of yeast strains with defined genetic alterations is measured as a screen for potential anti-cancer activity. Selected strains with alterations in DNA damage repair or cell cycle control were exposed to compounds and growth inhibition was measured relative to vehicle treated controls. The strain used in this assay is CLN2oe
About 79,000 compounds went through this panel and 15% of them were active in at least one assay; those are over-represented in the sample as a whole.
Observation Type: growth inhibition (%)
# unit: % | format: bare number

Recorded results for 6 compounds are shown here.
O=C(NCCCCNCCCNC(=O)c1cc(-c2ccccc2)nc2ccccc12)c1cc(-c2ccccc2)nc2ccccc12 : 43
CCCCCCCCCCCCCC[N+](C)(CC(=O)[O-])Cc1ccccc1 (configuration not stated) : 99
c1ccc2c(c1)NC(NC1Nc3ccccc3N1)N2 : -7
CC(=O)SCCC[Si](C)(C)CCCSC(C)=O : 13
CC(C)/C(Cl)=N\OC(=O)Nc1ccc(F)cc1 : 14
Cc1ccc(Cl)c2[nH]c(-c3ccccc3)cc(=O)c12 : -5

Consider the compound shown here: CCN(CC)CC(O)c1ccc2ccc3ccccc3c2c1 (configuration not stated) What is its recorded growth inhibition?
35

Consider the compound shown here: `CCN(CC)C(C)(C)C(=O)/C=C/c1ccccc1` What is its recorded growth inhibition?
1

Consider the compound shown here: `CNC(=O)OCc1c(COC(=O)NC)c(-c2ccc(Cl)c(Cl)c2)n2c1CCC2` What is its recorded growth inhibition?
65

Consider the compound shown here: `O=C(O)c1ccccc1-c1ccccc1C(=O)Nc1ccc2c(c1)Cc1ccccc1-2` What is its recorded growth inhibition?
64

Consider the compound shown here: `Cc1ccc(S/N=C\c2ccccc2O)cc1` What is its recorded growth inhibition?
2

Consider the compound shown here: `S=C(N/N=C(/c1ccccc1)c1ccccn1)N1CCCCCC1` What is its recorded growth inhibition?
-4
